system under test: UniProtKB O66040
Sequence (O66040 entry or part of it): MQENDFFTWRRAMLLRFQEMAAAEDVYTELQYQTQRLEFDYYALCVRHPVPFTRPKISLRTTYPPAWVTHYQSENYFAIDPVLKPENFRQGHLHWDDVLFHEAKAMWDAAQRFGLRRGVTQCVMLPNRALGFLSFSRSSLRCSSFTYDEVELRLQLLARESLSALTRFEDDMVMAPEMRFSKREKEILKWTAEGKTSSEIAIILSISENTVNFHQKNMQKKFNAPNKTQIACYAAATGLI
assay remarks: S. Typhimurium-pJNS25 SdiA reporter, competitive antagonism against 10 nM L-OOHL
Assay type: cell-based
study conditions: 1 μM compound; average ± STD, change in activity from 10 nM 2 (OOHL)
value kind: Antagonism 1 μM Inhibition (%)
Give bare numbers, in %.

In the examples that follow, each entry is paired with its recorded Antagonism 1 μM Inhibition (%).
compound: CCCCCCCCCCCCCC(=O)CC(=O)N[C@H]1CCOC1=O
value kind: Antagonism 1 μM Inhibition (%)
uom: %
assay value: 1
//
compound: COc1cccc(CC(=O)N[C@H]2CCOC2=O)c1 [E2]
value kind: Antagonism 1 μM Inhibition (%)
uom: %
assay value: -5

Field: Antagonism 1 μM Inhibition (%). Fill in for each record below.
1. O=C(CC(O)Cc1cccc(I)c1)N[C@H]1CCOC1=O (some centres unmarked)
2. O=C(N[C@H]1CCOC1=O)c1ccc(F)cc1
3. CCCCCCCCCCCC(=O)N[C@H]1CCSC1=O
4. O=C(CCCc1ccccc1)NC1CCOC1=O (centres unmarked)

Reply |
1: 6; 2: 34; 3: -2; 4: 34

Go through the items and report each one's Antagonism 1 μM Inhibition (%).
1. O=C(CCc1ccc2c(c1)OCO2)N[C@H]1CCOC1=O
2. CCCCCCCCCCCCCC(=O)N[C@H]1CCOC1=O
3. CCCCCCCCCC(=O)CC(=O)N[C@H]1CCOC1=O [compound 1, reference compound]
4. O=C(Cc1ccc(Br)cc1)N[C@H]1CCOC1=O [compound 7, reference compound]
5. O=C(N[C@H]1CCOC1=O)c1ccc(-c2csnn2)cc1

Reply |
1. 10
2. 5
3. 2
4. 26
5. 23
